B1: H2-Kb / Ed28 (parent complex)
chain 1: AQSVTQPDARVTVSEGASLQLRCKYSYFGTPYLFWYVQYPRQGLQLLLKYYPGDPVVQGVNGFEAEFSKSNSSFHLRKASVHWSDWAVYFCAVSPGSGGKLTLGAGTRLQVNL
chain 2: DSGVVQSPRHIIKEKGGRSVLTCIPISGHSNVVWYQQTLGKELKFLIQHYEKVERDKGFLPSRFSVQQFDDYHSEMNMSALELEDSAMYFCASSPRASDYTFGSGTRLLVI
chain 3: not shown
chain 4: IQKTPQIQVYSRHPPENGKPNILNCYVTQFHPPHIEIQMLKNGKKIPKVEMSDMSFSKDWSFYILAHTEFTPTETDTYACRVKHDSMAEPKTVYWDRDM
chain 5: SIINFEKL

- Variants of: B1
- assay.notes: % of reporter cells activated (NFAT-GFP), raw; also: test concentration or dose not given here
property.label: ratio to parent

Answered examples (4):
chain 5 K7N
0.242
chain 5 I3A
0.632
chain 5 S1R
0.321
chain 5 L8F
1.02

a: chain 5 N4M
b: chain 5 K7P
c: chain 5 I2F
Lookup: Reorder the items by ratio to parent, least to greatest. Order the labels as requested and list them.
Found: a, b, c

Data origin: paper PMC11480844
